// each record: one item and its IC50 for Serine/threonine-protein kinase Chk2 (Homo sapiens, UniProt O96017)
attributeMeasured: IC50

compoundStructure: N=C(N)N/N=C/c1c(-c2cccc([N+](=O)[O-])c2)nc2sc(Cl)cn12
measurementTarget: Serine/threonine-protein kinase Chk2 (Homo sapiens, UniProt O96017)
Sequence (O96017 whole entry): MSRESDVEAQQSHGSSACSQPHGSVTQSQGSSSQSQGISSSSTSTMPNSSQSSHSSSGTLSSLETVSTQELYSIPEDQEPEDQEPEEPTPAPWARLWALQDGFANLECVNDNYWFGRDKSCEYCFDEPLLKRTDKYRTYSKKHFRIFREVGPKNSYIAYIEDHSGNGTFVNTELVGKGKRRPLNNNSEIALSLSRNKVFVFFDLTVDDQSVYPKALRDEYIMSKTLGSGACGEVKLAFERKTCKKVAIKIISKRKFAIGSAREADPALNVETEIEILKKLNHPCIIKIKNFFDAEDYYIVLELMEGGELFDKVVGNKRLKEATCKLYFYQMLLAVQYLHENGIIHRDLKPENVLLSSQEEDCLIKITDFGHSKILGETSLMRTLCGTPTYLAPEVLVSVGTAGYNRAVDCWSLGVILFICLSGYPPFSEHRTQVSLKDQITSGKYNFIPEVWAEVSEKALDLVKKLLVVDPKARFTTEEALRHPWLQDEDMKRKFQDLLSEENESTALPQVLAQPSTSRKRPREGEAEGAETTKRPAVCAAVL
result: > 100 µM
--
compoundStructure: N=C(N)N/N=C/c1c(-c2ccc([N+](=O)[O-])cc2)nc2sccn12
measurementTarget: Serine/threonine-protein kinase Chk2 (Homo sapiens, UniProt O96017)
result: > 100 µM
--
compoundStructure: COc1cc([N+](=O)[O-])c(OC)cc1-c1nc2ccccn2c1/C=N/NC(=N)N
measurementTarget: Serine/threonine-protein kinase Chk2 (Homo sapiens, UniProt O96017)
result: > 100 µM
--
compoundStructure: N=C(N)N/N=C/c1c(-c2cc(Cl)sc2Cl)nc2ccccn12
measurementTarget: Serine/threonine-protein kinase Chk2 (Homo sapiens, UniProt O96017)
result: > 20 µM
--
compoundStructure: N=C(N)N/N=C/c1c(-c2cc(Cl)sc2Cl)nc2sc(Cl)cn12
measurementTarget: Serine/threonine-protein kinase Chk2 (Homo sapiens, UniProt O96017)
result: > 100 µM
--
compoundStructure: Cc1cn2c(/C=N\NC(=N)N)c(-c3ccc(F)cc3)nc2s1
measurementTarget: Serine/threonine-protein kinase Chk2 (Homo sapiens, UniProt O96017)
result: > 50 µM
--
compoundStructure: Cc1cn2c(/C=N/NC(=N)N)c(-c3cc([N+](=O)[O-])c(Cl)cc3Cl)nc2s1
measurementTarget: Serine/threonine-protein kinase Chk2 (Homo sapiens, UniProt O96017)
result: > 100 µM
--
compoundStructure: Cl.N=C(N)N/N=C\c1c(-c2ccc([N+](=O)[O-])cc2)nc2sc(F)cn12
measurementTarget: Serine/threonine-protein kinase Chk2 (Homo sapiens, UniProt O96017)
result: 56.5 µM
--
compoundStructure: Cc1sc2nc(-c3cccnc3)c(/C=N/NC(=N)N)n2c1C
measurementTarget: Serine/threonine-protein kinase Chk2 (Homo sapiens, UniProt O96017)
result: 6.58 µM
--
compoundStructure: N=C(N)N/N=C\c1c(-c2ccccc2F)nc2sccn12
measurementTarget: Serine/threonine-protein kinase Chk2 (Homo sapiens, UniProt O96017)
result: > 100 µM
